Values compiled from patent US20230009323A1.

Some compounds, each annotated with its measured EC50.
Tested on: C. hominis (TU 502)
Assay: C. hominis TU502 growth in HCT-8 cells
Assay type: cell-based
Details: Cryptosporidium hominis
Give a bare numeral; the unit nM is implied.

Field: example entries. Status: answers known.
{"columns": ["SMILES_RECORD", "STUDY_SYSTEM", "UNIT_NAME", "VALUE"],
 "data": [
  ["COc1ccc(NC(=O)N2CCCCN3[C@H](CN(C)S(C)(=O)=O)[C@H](c4ccc(C#Cc5ccccc5)cc4)[C@@H]3C2)cc1", "C. hominis (TU 502)", "nM", 4],
  ["COc1ccc(NC(=O)N2CCCCN3[C@H](COCCC(=O)O)[C@H](c4ccc(C#Cc5ccccc5)cc4)[C@@H]3C2)cc1", "C. hominis (TU 502)", "nM", 5],
  ["COc1ccc(NC(=O)N2CCCCN3[C@H](CN(C)C)[C@H](c4ccc(C#Cc5ccccc5)cc4)[C@@H]3C2)cc1", "C. hominis (TU 502)", "nM", 10],
  ["COc1ccc(NC(=O)N2C[C@@H](O)[C@@H](O)CN3[C@H](CS(C)(=O)=O)[C@H](c4ccc(C#Cc5ccccc5)cc4)[C@@H]3C2)cc1", "C. hominis (TU 502)", "nM", 2],
  ["COc1ccc(NC(=O)N2CCCCN3[C@H](CN(C)C(C)=O)[C@H](c4ccc(C#Cc5ccccc5)cc4)[C@@H]3C2)cc1", "C. hominis (TU 502)", "nM", 3]
]}

// switching to the query compound
INPUT: Find the recorded EC50 belonging to COc1ccc(NC(=O)N2CCCCN3C[C@H](c4ccc(C#Cc5ccccc5)cc4)[C@@H]3C2)cc1 and report it.
OUTPUT: 55

###

Test system: C. parvum Iowa isolate (Bunch Grass Farm)
Assay: C. parvum Iowa isolate (Bunch Grass Farm) growth in HCT-8 cells, high-content microscopy
Type: cell-based
Conditions: Cryptosporidium parvum, read-out: C. parvum (Iowa) (1% FBS) BGF EC50
Source text: A high-content microscopy assay was used to measure activity of compounds against C. parvum grown in the human adenocarcinoma cell line HCT-8 (ATCC) as disclosed in Bessoff, K., et al., Antimicrobial agents and chemotherapy 57, 1804-1814, doi:10.1128/AAC.02460-12 (2013), hereby incorporated by reference in its entirety. […]
READOUT_NAME: pEC50
Entry type: numeric. Quantity: pEC50, the -log10 of concentration in molar units.

Solved cases below.
{"columns": ["COMPOUND", "pEC50"],
 "data": [
  ["COc1ccc(NC(=O)N2CCCCN3[C@H](CN(C)C)[C@H](c4ccc(C#Cc5ccccc5)cc4)[C@@H]3C2)cc1 [Compound 11]", 8.05],
  ["COc1ccc(NC(=O)N2CCCCN3[C@H](COCCC(=O)O)[C@H](c4ccc(C#Cc5ccccc5)cc4)[C@@H]3C2)cc1 [Compound 10]", 8.40],
  ["COc1ccc(NC(=O)N2CCCCN3C[C@H](c4ccc(C#Cc5ccccc5)cc4)[C@@H]3C2)cc1 [Compound 19]", 7.44]
]}

INPUT: Please give the measured pEC50 for this compound: COc1ccc(NC(=O)N2CCCCN3[C@H](CN(C)S(C)(=O)=O)[C@H](c4ccc(C#Cc5ccccc5)cc4)[C@@H]3C2)cc1 [Compound 17]
OUTPUT: 8.22

INPUT: Fill in: pEC50 of COc1ccc(NC(=O)N2CCCCN3[C@H](CN(C)C(C)=O)[C@H](c4ccc(C#Cc5ccccc5)cc4)[C@@H]3C2)cc1 [Compound 16] is ___
OUTPUT: 8.70

###

System: C. parvum (Field Isolate) WSU
Experiment: C. parvum field isolate (WSU) growth in HCT-8 cells
Format: cell-based
Conditions: Cryptosporidium parvum
Experimental: Studies using farm C. parvum isolates and the C. hominis TU502 isolate were performed by Calibr at Scripps Research (La Jolla, Calif.) in 1,536-well plates using a slightly modified immunofluorescence assay as described in Love, M. S. et al. PLoS neglected tropical diseases 11, e0005373, doi:10.1371/journal.pntd.0005373 (2017), hereby incorporated by reference in its entirety. […] Dose-response curves and EC50 values were calculated using the Smart Fit function of Genedata Analyzer.
READOUT_NAME: EC50 (nM)
Write it as a number; the unit nM goes unstated.

As a guide, the following entries are already answered.
{"columns": ["SMILES_RECORD", "UNIT_NAME", "VALUE"],
 "data": [
  ["COc1ccc(NC(=O)N2CCCCN3[C@H](CN(C)S(C)(=O)=O)[C@H](c4ccc(C#Cc5ccccc5)cc4)[C@@H]3C2)cc1", "nM", 6],
  ["COc1ccc(NC(=O)N2CCCCN3[C@H](COCCC(=O)O)[C@H](c4ccc(C#Cc5ccccc5)cc4)[C@@H]3C2)cc1", "nM", 9]
]}

INPUT: Would you kindly share the measured EC50 for COc1ccc(NC(=O)N2CCCCN3[C@H](CN(C)C)[C@H](c4ccc(C#Cc5ccccc5)cc4)[C@@H]3C2)cc1 ?
OUTPUT: 23

INPUT: # lookup: EC50 of COc1ccc(NC(=O)N2CCCCN3C[C@H](c4ccc(C#Cc5ccccc5)cc4)[C@@H]3C2)cc1
OUTPUT: 96

INPUT: Can you look up the measured EC50 of COc1ccc(NC(=O)N2CCCCN3[C@H](CN(C)C(C)=O)[C@H](c4ccc(C#Cc5ccccc5)cc4)[C@@H]3C2)cc1 for me?
OUTPUT: 6

###

Assay: HEK293T cytotoxicity
Assay type: cell-based
Settings: human, HEK293T cells
READOUT_NAME: CC50 (µM)
Unit µM implied. Number only.

Use the examples below as a reference point.
{"columns": ["COMPOUND", "CC50 [µM]"],
 "data": [
  ["COc1ccc(NC(=O)N2CCCCN3[C@H](CN(C)C)[C@H](c4ccc(C#Cc5ccccc5)cc4)[C@@H]3C2)cc1 [Compound 11]", 5],
  ["COc1ccc(NC(=O)N2C[C@@H](O)[C@@H](O)CN3[C@H](CS(C)(=O)=O)[C@H](c4ccc(C#Cc5ccccc5)cc4)[C@@H]3C2)cc1 [Compound 18]", 6],
  ["COc1ccc(NC(=O)N2CCCCN3[C@H](CN(C)C(C)=O)[C@H](c4ccc(C#Cc5ccccc5)cc4)[C@@H]3C2)cc1 [Compound 16]", 27]
]}

INPUT: # input compound: COc1ccc(NC(=O)N2CCCCN3C[C@H](c4ccc(C#Cc5ccccc5)cc4)[C@@H]3C2)cc1 [Compound 19] ; wanted: its CC50
OUTPUT: 25

###

Target: recombinant C. hominis PheRS (ChPheRS) (Cryptosporidium hominis)
Test: C. hominis PheRS aminoacylation assay
Conditions: aminoacylation activity
READOUT_NAME: pIC50
pIC50 is defined as minus the log10 of a concentration measured in mol/L.

INPUT: Provide value of pIC50 for this record tested with recombinant C. hominis PheRS (ChPheRS) (Cryptosporidium hominis): COc1ccc(NC(=O)N2CCCCN3[C@H](CN(C)C)[C@H](c4ccc(C#Cc5ccccc5)cc4)[C@@H]3C2)cc1
OUTPUT: 7.22

###

Experiment: HepG2 cytotoxicity
Assay type: cell-based
Conditions: human, HepG2 cells
Listed here are molecules together with their documented CC50.
Use µM as the unit, but write only the number.

Answered examples (3):
{"columns": ["MOLECULE", "CC50 (µM)"],
 "data": [
  ["COc1ccc(NC(=O)N2CCCCN3[C@H](CN(C)C)[C@H](c4ccc(C#Cc5ccccc5)cc4)[C@@H]3C2)cc1 [Compound 11]", 5],
  ["COc1ccc(NC(=O)N2CCCCN3[C@H](CN(C)C(C)=O)[C@H](c4ccc(C#Cc5ccccc5)cc4)[C@@H]3C2)cc1 [Compound 16]", 25],
  ["COc1ccc(NC(=O)N2CCCCN3C[C@H](c4ccc(C#Cc5ccccc5)cc4)[C@@H]3C2)cc1 [Compound 19]", 10]
]}

From here, focus on the item given below.
INPUT: Which value of CC50 has been reported for COc1ccc(NC(=O)N2C[C@@H](O)[C@@H](O)CN3[C@H](CS(C)(=O)=O)[C@H](c4ccc(C#Cc5ccccc5)cc4)[C@@H]3C2)cc1 [Compound 18] in the records?
OUTPUT: 8

###

Listed next: entries and their corresponding EC50.
Tested on: C. parvum mutant transgenic PheRS (mut482V)
Test: microbe, parasite or virus in culture
Assay type: cell-based, Cryptosporidium parvum
Conditions: Cryptosporidium parvum, HCT-8, 48 h, read-out: EC50, mutant transgenic
API: value field is a number in nM; no unit string.

INPUT: State the recorded EC50 for this entry: COc1ccc(NC(=O)N2CCCCN3C[C@H](c4ccc(C#Cc5ccccc5)cc4)[C@@H]3C2)cc1 [Compound 19]
OUTPUT: 372

INPUT: Sample COc1ccc(NC(=O)N2CCCCN3[C@H](CN(C)C)[C@H](c4ccc(C#Cc5ccccc5)cc4)[C@@H]3C2)cc1 [Compound 11] — what was its EC50?
OUTPUT: 1060
